system: PPARg:RXRa 90nM:30nM, anti-RXR (NR concentration 90 nM, RXRa partner concentration 30 nM); experiment: PBM binding z-score (relative to random genomic background probes); higher = stronger binding; sequences stand for … in GC…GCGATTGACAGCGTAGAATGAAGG
PARAMETER MEASURED: PBM binding z-score
Numbers only.

Would you please look over these solved cases?
* ATCTCTAAGTAAAGATAGTTCAGTGAATGCAAAT | 0.14
* CCGAGTAGGTTATGAGGCATTCAGGCAACGGTGA | 1.44

Provide the reported PBM binding z-score of each entry below, same order.
1. CGAACGAGGGCAAGAGTTGATAGCAAATGCCGAT
2. CATACAGGGTCAGCTAGGCCTGAGTAGGGACGGC
3. AGAACGAGGGCAATGAGTTGAGAGCACGGGTGGC
4. AGAATGAGGTTACCAAAAATCAGGGAAACGCTTG
5. TCGAGTAGGTTAGGGGCATTCAGAATGGCGTCGA
6. CCGACTGGGGCTAAGGTTACCATACTCAGTACGA
7. TTAGCAAGGTGAAAGGTCGTTGATGCACGCCTTG

**A:**
1. 1.92
2. 1.89
3. 0.763
4. 2.25
5. 1.76
6. 5.78
7. 9.55
